Entry source: ChEMBL document CHEMBL1165856

Answer each item with its documented selectivity ratio.
- ASSAY EXPLANATION: Selectivity index, ratio of ID50 for mouse J774 cells to ID50 for Trypanosoma cruzi Tulahuen 2
- Type: toxicity, cell-based
- ASSAY CONDITIONS: J774 cells versus Trypanosoma cruzi Tulahuen 2

Please report the recorded selectivity ratio for CN(C/C=C/c1ccccc1)Cc1ccc2c(c1)=[N+]([O-])C(C)(C)[N+]=2[O-] .
> 17.6

Please look up its selectivity ratio: CN(C/C=C/c1ccccc1)Cc1ccc2no[n+]([O-])c2c1
< 4.4

Fill in: selectivity ratio of CC(=O)N1CCN(c2ccc(OCC3COC(Cn4ccnc4)(c4ccc(Cl)cc4Cl)O3)cc2)CC1 (stereo not given) is ___
19.9

GET /values?readout=selectivity ratio&item= CN(C/C=C/c1ccccc1)CCCCCn1nc(OCc2ccccc2)c2cc([N+](=O)[O-])ccc21
< 12.8

I'd like to know its selectivity ratio. The compound in question is CC1CS(=O)(=O)CCN1/N=C/c1ccc([N+](=O)[O-])o1 (stereo not given)
> 33.3

* * *

- Tested on: Nannizzia gypsea
- ASSAY EXPLANATION: Antifungal activity against Microsporum gypseum C 115 after 48 hrs
- Format: functional
- ASSAY CONDITIONS: C 115, 48 h
Would you kindly list MIC for each of these compounds?

Which value of MIC has been reported for N#Cc1c2ccccc2[n+]([O-])n1C/C=C/c1ccccc1 in the records?
62.5 µg/mL

Query: MIC; subject: O=[N+]([O-])c1ccc2c(c1)c(OCc1ccccc1)nn2CCOCCN1CCN(C/C=C/c2ccccc2)CC1
125 µg/mL

Query: MIC; subject: CN(C/C=C/C#CC(C)(C)C)Cc1cccc2ccccc12
0.04 µg/mL

Fill in the blank: the reported MIC of C=CCNC(=S)N/N=C/c1ccc2c(c1)[n+]([O-])c(C(=O)Nc1ccccc1)c(C)[n+]2[O-] is ____.
250 µg/mL

Bench note: what MIC did C=CCNC(=S)N/N=C/c1ccc2c(c1)[n+]([O-])c(C)c(C)[n+]2[O-] show?
> 250 µg/mL

Name the reported MIC value associated with the compound CC(=O)N1CCN(c2ccc(OCC3COC(Cn4ccnc4)(c4ccc(Cl)cc4Cl)O3)cc2)CC1 (configuration not stated)
0.05 µg/mL

Data request, read-out MIC, for C=CCNC(=S)N/N=C/c1ccc2c(c1)=[N+]([O-])C(C)(C)[N+]=2[O-]
250 µg/mL

* * *

Provide the reported CC50 at 48 h of each item.
- ASSAY EXPLANATION: Cytotoxicity against mouse J774 cells after 48 hrs by MTT assay
- Type: cell-based
- ASSAY CONDITIONS: read-out: ID50

I'd like to know its CC50 at 48 h. The compound in question is COc1nn(CCOCCN(C)C/C=C/c2ccccc2)c2ccc([N+](=O)[O-])cc12
< 100 µM

Return reported CC50 at 48 h; argument: O=[N+]([O-])c1ccc2c(c1)c(OCc1ccccc1)nn2CCOCCN1CCN(C/C=C/c2ccccc2)CC1
< 100 µM

Data request, read-out CC50 at 48 h, for C=CCNC(=S)N/N=C/c1ccc2c(c1)=[N+]([O-])C(C)(C)[N+]=2[O-]
104 µM

# query: CC50 at 48 h of entry CN(C/C=C/c1ccccc1)CCOCCn1nc(OCc2ccccc2)c2cc([N+](=O)[O-])ccc21
< 100 µM

Which CC50 at 48 h is listed for CC1(C)[N+]([O-])=c2ccc(CN3CCN(C/C=C/c4ccccc4)CC3)cc2=[N+]1[O-] ?
109 µM

Given O=[N+]([O-])c1ccc2c(c1)c(OCc1ccccc1)nn2CCOCCNCCC/C=C/c1ccccc1 , state its recorded CC50 at 48 h.
< 100 µM

// returns reported CC50 at 48 h for input CN(C/C=C/c1ccccc1)Cc1ccc2c(c1)=[N+]([O-])C(C)(C)[N+]=2[O-]
> 400 µM
